test: Octanol–water partitioning in the presence of sodium dodecanoate; type: physicochemical; settings: mean ± SD; octanol–water partitioning with sodium dodecanoate (2.5 equiv); D2O
Items are presented alongside their recorded Percent in Aqueous Layer.
Numeric only. Scale: %

compound	Percent in Aqueous Layer (%)
CC(=O)N(C)C(CCCN=C(N)N)C(=O)N(C)C (stereo not shown) [4·H^+, Ac-(N-Me)Arg-NMe2]	12.7
CC(=O)N[C@@H](CCCNC(=N)N)C(=O)N(C)C [3·H^+, Ac-Arg-NMe2]	18.3
CC(=O)N[C@@H](CCCN=C(N)N)C(N)=O [1·H^+, Ac-Arg-NH2]	30.4

Query: Percent in Aqueous Layer; subject: CNC(=O)[C@H](CCCNC(=N)N)NC(C)=O [2·H^+, Ac-Arg-NHMe] 19.8

Sourced from paper PMC10073267
